- STUDY SYSTEM: Ubiquitin-conjugating enzyme E2 N (Homo sapiens, UniProt P61088);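 note: Dose-response confirmation in a TR-FRET assay detecting UBC13-driven polyubiquitin chain formation, inhibition measured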
- Sequence (P61088 whole entry): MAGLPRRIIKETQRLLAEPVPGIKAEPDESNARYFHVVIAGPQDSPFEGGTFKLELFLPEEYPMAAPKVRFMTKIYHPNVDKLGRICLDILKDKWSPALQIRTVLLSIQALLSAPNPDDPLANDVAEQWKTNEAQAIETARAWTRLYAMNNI
- Type: functional
Active and inactive are the calls of the source.
IC50: recorded values

{"SMILES STRUCTURE": "CN(C)CCCN(C(=O)c1ccc(S(=O)(=O)N2CCCCCC2)cc1)c1nc2ccc(Br)cc2s1", "STUDY SYSTEM": "Ubiquitin-conjugating enzyme E2 N (Homo sapiens, UniProt P61088)", "IC50": "13.4 µM (active)"}
{"SMILES STRUCTURE": "COc1ccccc1NS(=O)(=O)c1cccc(C(=O)NNC(=O)c2ccc(Cl)nc2)c1", "STUDY SYSTEM": "Ubiquitin-conjugating enzyme E2 N (Homo sapiens, UniProt P61088)", "IC50": "> 20 µM (inactive)"}
{"SMILES STRUCTURE": "COc1cccc(-c2nn(C)c3sc(C(=O)NCCCN(C)Cc4ccccc4)cc23)c1", "STUDY SYSTEM": "Ubiquitin-conjugating enzyme E2 N (Homo sapiens, UniProt P61088)", "IC50": "> 20 µM (inactive)"}
{"SMILES STRUCTURE": "Cc1ccc(C(=O)N[C@@H](C)CN2C3=NC[C@H](Cc4ccccc4)N3C[C@H]2Cc2ccc(O)cc2)cc1Br", "STUDY SYSTEM": "Ubiquitin-conjugating enzyme E2 N (Homo sapiens, UniProt P61088)", "IC50": "> 20 µM (inactive)"}
{"SMILES STRUCTURE": "CCOc1ccccc1NC(=O)COc1cccnc1[N+](=O)[O-]", "STUDY SYSTEM": "Ubiquitin-conjugating enzyme E2 N (Homo sapiens, UniProt P61088)", "IC50": "> 20 µM (inactive)"}

* * *

- STUDY SYSTEM: Prothrombin (Bos taurus)
- ASSAY COMMENT: thrombin protease inhibitors – biochemical, fluorescence polarization, uHTS hits, dose response (AID 602369)
- Format: functional
Active and inactive are the calls of the source.
IC50: recorded values

{"SMILES STRUCTURE": "CCN1CCc2c(sc(NC(=O)c3cc4ccccc4cc3OC)c2C(N)=O)C1", "IC50": "32.5 µM (active)"}
{"SMILES STRUCTURE": "Cc1cccc(NC(=O)CNC(=O)CCc2nc3sc4c(c3c(=O)[nH]2)CCCC4)c1C", "IC50": "43.9 µM (active)"}
{"SMILES STRUCTURE": "COc1ccccc1N1C(=O)S/C(=C\\c2ccc(C)s2)C1=O", "IC50": "36.3 µM (active)"}
{"SMILES STRUCTURE": "O=C(CCN1C(=O)NC2(CCCC2)C1=O)Nc1ccc(-c2nc3ccccc3s2)cc1", "IC50": "19.5 µM (active)"}
{"SMILES STRUCTURE": "Cc1c2cnn(CC(=O)Nc3c(F)c(F)cc(F)c3F)c(=O)c2c(C)n1Cc1ccccc1F", "IC50": "50.5 µM (active)"}

* * *

- STUDY SYSTEM: Trace amine-associated receptor 1 (Homo sapiens);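 note: inhibition of calcium response to PEA at EC80 in Galpha16 coupled cells measured by Fluo-8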
- Sequence (Q96RJ0 whole entry): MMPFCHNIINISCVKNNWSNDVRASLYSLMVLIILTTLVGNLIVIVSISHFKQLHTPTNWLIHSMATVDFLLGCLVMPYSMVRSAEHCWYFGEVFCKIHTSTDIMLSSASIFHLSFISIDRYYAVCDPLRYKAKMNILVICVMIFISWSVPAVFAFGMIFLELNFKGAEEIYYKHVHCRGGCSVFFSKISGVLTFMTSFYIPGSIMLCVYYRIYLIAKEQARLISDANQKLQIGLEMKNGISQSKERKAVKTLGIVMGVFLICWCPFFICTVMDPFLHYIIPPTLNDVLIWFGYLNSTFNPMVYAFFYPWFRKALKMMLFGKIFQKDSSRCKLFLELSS
- ASSAY COMMENT: Counterscreen for agonists of the human trace amine associated receptor 1 (hTAAR1): Fluorescence-based cell-based high throughput dose response assay to identify hTAAR1 agonist that also desensitize TAAR1 receptor response.
- Format: functional
The source made the active and inactive calls.
Possible outcomes: active, inactive

{"COMPOUND": "CCCCCCCCN1C(=O)[C@H](CC(=O)NCCc2ccccc2OC)C[C@@]2(C(=O)OC)CCCCC=C12", "LABEL": "active"}
{"COMPOUND": "Cc1cccn2c(CNCC3OCCc4ccccc43)c(C(=O)N3CCCCC3)nc12 (stereo not given)", "LABEL": "active"}
{"COMPOUND": "CC(Nc1ccnc2cc(Cl)ccc12)c1ccc(S(N)(=O)=O)cc1 (stereo not given)", "LABEL": "inactive"}
{"COMPOUND": "Cc1cc(C)n(C(CC(=O)N2CCc3ccccc3C2)C(=O)O)n1 (stereo not given)", "LABEL": "active"}
{"COMPOUND": "COc1ccc(Nc2cc(C)nc(N3CCOCC3)n2)cc1", "LABEL": "inactive"}

* * *

- STUDY SYSTEM: Probable nicotinate-nucleotide adenylyltransferase (Staphylococcus aureus (strain N315), UniProt P65502);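 note: confirmatory dose-response retesting of NadD inhibitor hits first found in an ultra-high-throughput screen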
- Sequence (P65502 whole entry): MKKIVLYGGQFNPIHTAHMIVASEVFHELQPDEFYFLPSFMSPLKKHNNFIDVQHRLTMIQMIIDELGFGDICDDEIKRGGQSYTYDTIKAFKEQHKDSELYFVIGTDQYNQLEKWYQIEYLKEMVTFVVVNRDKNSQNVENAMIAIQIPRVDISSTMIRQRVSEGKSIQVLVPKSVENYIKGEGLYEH
- Type: functional, Staphylococcus aureus subsp. aureus N315
- TEST CONTEXT: read-out: IC50_Mean
Calls of active or inactive are those of the source.
IC50: recorded values

{"MOLECULE": "Cc1csc(NC(=O)c2cc(-c3ccco3)nc3ccccc23)n1", "IC50": "18.4 µM (active)"}
{"MOLECULE": "O=C(CC1N=C2c3ccccc3N=C(SCc3ccc(Cl)cc3)N2C1=O)NCc1ccco1 (centres undefined)", "IC50": "23.6 µM (active)"}
{"MOLECULE": "COc1ccc(Br)cc1CNC(=O)CN1C(=O)C(c2ccccc2)Oc2cccnc21 (centres undefined)", "IC50": "31.6 µM (active)"}
{"MOLECULE": "Cc1cccc2sc(NNC(=O)c3ccc(S(=O)(=O)N4CCc5ccccc5C4)cc3)nc12", "IC50": "56.7 µM (active)"}

* * *

- STUDY SYSTEM: Caspase-3 (Homo sapiens);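 note: Dose-response selectivity test against caspase-3 for candidate inhibitors of sentrin-specific proteases (SENPs)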
- Sequence (P42574 whole entry): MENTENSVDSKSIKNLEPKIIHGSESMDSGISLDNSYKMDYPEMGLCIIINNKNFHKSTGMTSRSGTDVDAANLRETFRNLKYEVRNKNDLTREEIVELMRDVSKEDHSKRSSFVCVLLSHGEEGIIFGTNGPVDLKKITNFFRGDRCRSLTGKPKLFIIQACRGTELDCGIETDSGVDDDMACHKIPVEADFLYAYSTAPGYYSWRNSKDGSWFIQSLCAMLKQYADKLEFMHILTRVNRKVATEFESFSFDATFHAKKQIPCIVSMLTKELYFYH
- Type: functional
The source made the active and inactive calls.
Possible outcomes: t = active, f = inactive

{"SMILES STRUCTURE": "Clc1ccsc1-c1csc(-c2cccnc2)n1", "LABEL": "t"}
{"SMILES STRUCTURE": "COc1ccc(NC(=S)Nc2ccc3nsnc3c2)cc1", "LABEL": "t"}
{"SMILES STRUCTURE": "Cc1ccc(C(=O)OCC(=O)c2ccc(Cl)s2)s1", "LABEL": "t"}
{"SMILES STRUCTURE": "Cc1ccc(Cn2ccs/c2=N\\C(=O)COC(=O)c2ccc(O)cc2O)cc1", "LABEL": "t"}
{"SMILES STRUCTURE": "Cc1csc(NC(=O)c2ccc(Br)s2)n1", "LABEL": "t"}
{"SMILES STRUCTURE": "O=C(O)c1ccc(N/N=C/c2ccc(-c3cc(Cl)ccc3Cl)o2)cc1", "LABEL": "f"}
{"SMILES STRUCTURE": "Cc1cccc(-c2noc(-c3c(C)noc3C)n2)c1", "LABEL": "t"}

* * *

- STUDY SYSTEM: UniProt:P9WQ59
- Sequence (P9WQ59 whole entry): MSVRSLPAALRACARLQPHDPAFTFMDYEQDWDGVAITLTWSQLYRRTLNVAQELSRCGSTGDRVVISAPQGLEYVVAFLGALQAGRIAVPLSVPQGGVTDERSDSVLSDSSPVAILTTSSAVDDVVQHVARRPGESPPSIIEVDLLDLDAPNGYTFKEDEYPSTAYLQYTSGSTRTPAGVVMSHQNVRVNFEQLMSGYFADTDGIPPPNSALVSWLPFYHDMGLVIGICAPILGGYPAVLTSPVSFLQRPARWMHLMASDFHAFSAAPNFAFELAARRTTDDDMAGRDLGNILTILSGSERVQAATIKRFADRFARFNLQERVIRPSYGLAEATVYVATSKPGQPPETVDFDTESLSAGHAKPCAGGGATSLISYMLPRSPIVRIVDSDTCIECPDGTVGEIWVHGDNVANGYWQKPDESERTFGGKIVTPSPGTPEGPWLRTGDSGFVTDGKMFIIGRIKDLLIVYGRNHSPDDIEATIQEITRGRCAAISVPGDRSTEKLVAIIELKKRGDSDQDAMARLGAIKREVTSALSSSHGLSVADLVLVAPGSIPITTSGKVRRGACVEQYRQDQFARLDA
- ASSAY COMMENT: Fluorescence polarization aasay to screen for inhibitors that compete for the binding of FadD28 to a bisubstrate Measured in Biochemical System Using Plate Reader - 2147-01_Inhibitor_Dose_CherryPick_Activity.
- Assay type: functional, Mycobacterium tuberculosis H37Rv
Activity calls are given as the source filed them.
Possible outcomes: YES (active), NO (inactive)

{"COMPOUND": "CC1CCCC(C)N1C(=C(Cl)Cl)C(=C1SCCS1)[N+](=O)[O-] (stereo unspecified)", "LABEL": "NO"}
{"COMPOUND": "COc1cccc(NC(=O)Cn2c(=O)oc3cc(S(=O)(=O)N4CCCC4)ccc32)c1", "LABEL": "YES"}
{"COMPOUND": "COc1cc(/C=C2\\CCCc3c2nc2ccccc2c3C(=O)O)cc(Br)c1O", "LABEL": "YES"}
{"COMPOUND": "O=C1C=C(Nc2ccccc2C(=O)O)c2ccccc2C1=O", "LABEL": "NO"}
{"COMPOUND": "C=CCOc1ccc(C(c2c(C(=O)O)[nH]c3ccccc23)c2c(C(=O)O)[nH]c3ccccc23)cc1", "LABEL": "YES"}
{"COMPOUND": "COc1ccc(C(=O)Cn2nnc(-c3ccccc3F)n2)cc1", "LABEL": "NO"}

* * *

- STUDY SYSTEM: UniProt:P08684

{"COMPOUND": "COc1ccccc1-c1ccc2ncnc(NCc3cnc(C)cn3)c2c1", "AC50": "10 µM (inconclusive)"}
{"COMPOUND": "Cc1cc(C)n(Cc2ccc(NC(=O)c3ccc(COc4ccccc4Br)cc3)cc2)n1", "AC50": "14.1 µM (inconclusive)"}
{"COMPOUND": "N#Cc1cccc(NC(=O)N2CC[C@@]3(CCCN(C(=O)c4ccco4)C3)C2)c1", "AC50": "20 µM (inconclusive)"}
{"COMPOUND": "O=C1CC(c2cccc(F)c2)SC(N(c2ccccc2)c2ccccc2)=N1 (stereo unspecified)", "AC50": "17.8 µM (inconclusive)"}
{"COMPOUND": "CS(=O)(=O)N(CC(=O)Nc1c(F)cccc1F)c1ccc(C23CC4CC(CC(C4)C2)C3)cc1", "AC50": "15.8 µM (inconclusive)"}
{"COMPOUND": "CCN(CC)CCOC(=O)c1cc(Cl)c(N)cc1OC", "AC50": "31.6 µM (inconclusive)"}
{"COMPOUND": "CCc1ccccc1NC(=O)c1nnn(CC(=O)Nc2cccc(C)c2C)c1N", "AC50": "7.08 µM (inconclusive)"}
{"COMPOUND": "N#Cc1c(-c2ccccc2)cc(C2CC2)nc1SCC(=O)c1cccs1", "AC50": "14.1 µM (inconclusive)"}
{"COMPOUND": "CCCn1c(=N)n(CC(=O)c2ccco2)c2ccccc21", "AC50": "35.5 µM (inconclusive)"}
{"COMPOUND": "NC(=O)NC(=O)CSc1nnc(-c2ccco2)n1Cc1ccccc1", "AC50": "25.1 µM (inconclusive)"}
{"COMPOUND": "CCCCC(=O)OCc1cn(-c2ccc(Cl)cc2)nn1", "AC50": "39.8 µM (inconclusive)"}
